read-out: Alkaline Phosphatase, Placental (ALPP) gene, ALPP (gene 250); experiment: LTEA_HepaRG_ALPP: Life Technologies and Expression Analysis (LTEA) Assay for Alkaline Phosphatase, Placental (ALPP) gene using HepaRG (AID 2283468); conditions: mRNA level, 48 h; actives raise or lower the signal
Activity calls are given as the source filed them. Rule for the calls: active = hit-call score of the fitted dose curve at least 0.9, where 1 is the maximum; inactive = score below 0.9.
Response enum: T for active, F for inactive

Please state the recorded outcome for this molecule: "NC(=O)N(O)[C@@H]1C=C[C@H](Oc2cccc(Oc3ccc(F)cc3)c2)C1"
T

Recorded test outcome, item "O=[N+]([O-])c1ccc(O)cc1"
F

So what was the verdict on "C[C@@H]1C[C@H]2[C@@H]3CCC4=CC(=O)C=C[C@]4(C)[C@@]3(F)[C@@H](O)C[C@]2(C)[C@@]1(O)C(=O)COP(=O)(O)O" in this test?
F

Outcome? "CC(=O)NC1(c2cccc(F)c2)CCN(CC[C@@]2(c3ccc(Cl)c(Cl)c3)CN(c3ccccc3)C(=O)CO2)CC1"
T

Call for entry "COC(=O)CCCCC(=O)OC" :
F

Reference for the values: PubChem BioAssay (EPA / NIEHS)
